Test: xn = mol fraction of the nth substance listed, in the solute-free solvent
Conditions: 323.15 K; x2 = 0.6101
endpoint label: solubility (g/100 g solution)

[I] O=C1C=CC(=O)N1c1ccccc1Br + CCO + O
[II] Nc1ncc(Br)nc1Br + CCO + O
Return label of the item with the larger solubility (g/100 g solution). Candidates: I , II . Provide the label of your selected option as the answer.
I

---

Test: xn = mol fraction of the nth substance listed, in the solute-free solvent
Details: 288.15 K; x2 = 0.04165
endpoint label: solubility (g/100 g solution)

compound: O=c1cc(CBr)c2ccccc2[nH]1 + CCO + O
solubility (g/100 g solution): 0.023
//
compound: CC(C)C(=O)Nc1ccc([N+](=O)[O-])c(C(F)(F)F)c1 + CCO + O
solubility (g/100 g solution): 0.00476

[P] O=C1C=CC(=O)N1c1ccccc1Br + CCO + O
[Q] Nc1cc(-c2ccncc2)c[nH]c1=O + CCO + O
[R] Nc1ncc(Br)nc1Br + CCO + O
Arrange by solubility (g/100 g solution), high to low. Give me the labels in the order the question wants.
P, R, Q
(P: 0.862, R: 0.0296, Q: 0.00159)

Cited source for all entries: the CheMixHub drug solubility set
